# Species: Mus musculus
# procedure.details: Inhibition of hedgehog signaling pathway in mouse Light2 cells at 100 nM after 48 hrs by Gli-luciferase reporter gene assay relative to control
# Format: cell-based
Please use Fulfilled whenever inhibition is not below 80%, and Not fulfilled whenever it is.

Query: Evaluate CS(=O)(=O)c1ccc(C(=O)Nc2ccc(Cl)c(-c3ccccn3)c2)c(Cl)c1 [VISMODEGIB] : inhibition at minimum 80%?
Reply: Fulfilled

Query: Evaluate `Cc1c(-c2ccnn2C)nnc(N2CCC(NC(=O)Nc3cccnc3)CC2)c1C` : inhibition at minimum 80%?
Reply: Not fulfilled

Query: Evaluate CN(C(=O)c1ccc(F)cc1C(F)(F)F)C1CCN(c2nnc(-c3ccnn3C)c3ccccc23)CC1 [TALADEGIB] : inhibition at minimum 80%?
Reply: Fulfilled

Query: Evaluate `Cc1c(-c2ccccc2Cl)nnc(N2CCC(NC(=O)c3ccc(F)cc3C(F)(F)F)CC2)c1C` : inhibition at minimum 80%?
Reply: Fulfilled

Query: Evaluate `Cc1c(-c2ccnn2C)nnc(N2CCC(NC(=O)c3ccc(F)cc3C(F)(F)F)CC2)c1C` : inhibition at minimum 80%?
Reply: Fulfilled

Query: Evaluate `Cc1c(-c2ccnn2C)nnc(N2CCC(Nc3cnc(S(C)(=O)=O)cn3)CC2)c1C` : inhibition at minimum 80%?
Reply: Not fulfilled

Query: Evaluate `Cc1c(-c2ccc(Cl)cc2)nnc(N2CCC(NC(=O)c3ccc(F)cc3C(F)(F)F)CC2)c1C` : inhibition at minimum 80%?
Reply: Fulfilled

Query: Evaluate `Cc1c(-c2ccnn2C)nnc(N2CCC(NC(=O)NC3CCCCCC3)CC2)c1C` : inhibition at minimum 80%?
Reply: Not fulfilled

Query: Evaluate `Cc1c(-c2ccnn2C)nnc(N2CCC(NC(=O)c3ccc(Sc4ccccc4)cc3C(F)(F)F)CC2)c1C` : inhibition at minimum 80%?
Reply: Fulfilled

---

# Species on record: Mus musculus
# procedure.details: Inhibition of hedgehog signaling pathway in mouse Light2 cells at 100 nM after 48 hrs by Gli-luciferase reporter gene assay relative to control
# Format: cell-based
Please use label 1 whenever inhibition is not below 80%, and label 0 whenever it is.

Query: Evaluate `COc1ccc(-c2nnc(N3CCC(NC(=O)c4ccc(F)cc4C(F)(F)F)CC3)c(C)c2C)cc1` : inhibition at minimum 80%?
Reply: label 0

Query: Evaluate `Cc1c(-c2ccnn2C)nnc(N2CCC(Nc3ccc(C(C)(C)O)cn3)CC2)c1C` : inhibition at minimum 80%?
Reply: label 0

Query: Evaluate `Cc1c(-c2ccc(C#N)cc2)nnc(N2CCC(NC(=O)c3ccc(F)cc3C(F)(F)F)CC2)c1C` : inhibition at minimum 80%?
Reply: label 1

Query: Evaluate `Cc1c(-c2ccccc2)nnc(N2CCC(NC(=O)c3ccc(F)cc3C(F)(F)F)CC2)c1C` : inhibition at minimum 80%?
Reply: label 1

Query: Evaluate `Cc1c(-c2ccnn2C)nnc(N2CCC(Nc3cnc(C(C)(C)O)cn3)CC2)c1C` : inhibition at minimum 80%?
Reply: label 0

---

For each entry below, report its inhibition value.
# Species: Mus musculus
# procedure.details: Inhibition of hedgehog signaling pathway in mouse Light2 cells at 100 nM after 48 hrs by Gli-luciferase reporter gene assay relative to control
# Format: cell-based
Expressed in %, but write only the number.

Query `Cc1c(-c2ccnn2C)nnc(N2CCC(NC(=O)Nc3ccccc3)CC2)c1C` yields inhibition of 26.2

Query `Cc1ccc(-c2nnc(N3CCC(NC(=O)c4ccc(F)cc4C(F)(F)F)CC3)c(C)c2C)cc1` yields inhibition of 101

Query `Cc1c(-c2ccnn2C)nnc(N2CC[C@@H](NC(=O)c3ccc(F)cc3C(F)(F)F)C2)c1C` yields inhibition of 54.1
